Entry source: paper PMC12136788

Reported binding signal is given for each of the following binders.
measured_on: T1, UNK ZnF1-3 (human, UniProt Q9C0B0 31-174)
T1 sequence: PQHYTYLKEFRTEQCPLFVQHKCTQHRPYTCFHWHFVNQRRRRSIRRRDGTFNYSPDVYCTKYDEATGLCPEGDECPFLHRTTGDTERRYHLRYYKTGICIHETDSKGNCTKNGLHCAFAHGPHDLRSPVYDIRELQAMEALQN
assay_details: nsRBNS (natural sequence RNA bind-n-seq); RBNS binding buffer (assumed for nsRBNS): 25 mM Tris pH 7.5, 150 mM KCl, 3 mM MgCl2, 0.01% Triton X-100, 500 ug/ml BSA, 20 U/ml SUPERase-In, 4 C; UNK is unkempt and MSI1 is Musashi-1; names of the RNAs are library labels; protein concentration not given here; high values mean tight binding
Over roughly 24,000 sequences, “enrichment r” has its median near 0.99; the highest 2% begin near 3.7. What follows is part of a selection rich in the highest values, with near analogues and random picks from the rest.
Give just the number in enrichment R; leave the unit off.

{"binder": "chr11:9308113:9308114:-_ENSG00000166471_ENST00000528080|hu_hu|motif|central (ssRNA) RNA: GGGAGUUCUACAGUCCGACGAUCAUUAGGCAGAAAUGGUGUUAUUCUCAAAAAUAUAAUGUAGUUAAUGAGAUGUUCUCGGUGACGUUCAACCUGCUGUGACCAUUUUACUGCUUUCUCUGUUAGGUAUUUGUAUACAACUGGCAACAGAGGAUUGAGCAUCA", "uom": "enrichment R", "binding signal": 1.85}
{"binder": "chr5:106037793:106037794:+_ENSMUSG00000054720_ENSMUST00000067924|mus_hu|motif|central (ssRNA) RNA: GGGAGUUCUACAGUCCGACGAUCCUUUGUGUACAUUUUGUGUGAAAAGGAAAAAAAAAUAGGAAAGGCAUUAAGACGGCCGGAUUAUUUAUACUGUAUUUGGUAGAAGCGUGUUUCAGUCAAACUUUAACGAAAAAUAAGUUACAACAGAGGAUUGAGCAUCA", "uom": "enrichment R", "binding signal": 3.77}

I would be grateful if you could share the reported binding signal for chr5:106037793:106037794:+_ENSMUSG00000054720_ENSMUST00000067924|mus_mus|FALSE|FALSE (ssRNA) RNA: GGGAGUUCUACAGUCCGACGAUCUGUUGUCUUGUGUGGAAAAGGAAAAAAAAAUAAUAUAGGAAAGGCAUUAGGACUACCUAAUUCUUUAUAUUGUAUUUGGUAGAAGCAUGUUUCAGUCAUACUCUGAUGAAAAAUAAGUUACAACAGAGGAUUGAGCAUCA .
4.57
